Recorded values, source patent US6869971B1.

The next entries give measured MIC for Enteroccccus hirae ATCC 10541.
reported.metric: MIC (µg/mL)

- COC(=O)[C@@H]1CCN2C(=O)C(C(=O)C3[C@H]4CCCC[C@@H]4C=C[C@@H]3C)=C[C@]12O (stereo partly shown): 520
- CCCN(CCC)C(=O)[C@@H]1CCN2C(=O)C(C(=O)C3[C@H]4CCCC[C@@H]4C=C[C@@H]3C)=C[C@]12O (stereo partly shown): 5000
- CCCCN(CCCC)C(=O)[C@@H]1CCN2C(=O)C(C(=O)C3[C@H]4CCCC[C@@H]4C=C[C@@H]3C)=C[C@]12O (stereo partly shown): 1500
- C[C@H]1C=C[C@H]2CCCC[C@@H]2C1C(=O)[C@@]1(Br)C(=O)N2CC[C@H]3C(=O)O[C@@H]1[C@]32O (stereo partly shown): 13000
- CCN(CC)C(=O)[C@@H]1CCN2C(=O)C(C(=O)C3[C@H]4CCCC[C@@H]4C=C[C@@H]3C)=C[C@]12O (stereo partly shown): 3600
- CCN(CC)C(=O)[C@@H]1CCN2C(=O)C3(C(=O)C4[C@H]5CCCC[C@@H]5C=C[C@@H]4C)O[C@@H]3[C@]12O (stereo partly shown): 8100
- C=CCOC(=O)[C@@H]1CCN2C(=O)C3(C(=O)C4[C@H]5CCCC[C@@H]5C=C[C@@H]4C)O[C@@H]3[C@]12O (stereo partly shown): 48000
